biological target: human GnRH receptor (Homo sapiens); construct: expressed in transfected cells; host or cells: HEK 293 (hGnRH-R/293, from Dr. Stuart Sealfon); experiment: Radioligand binding, 125I-GnRH-A displacement, membranes of HEK 293 cells with human GnRH receptor; details: 1 h, repeat of % Inhib. at 1 uM; read-out: Repeats @ 1 uM hGnRH
Sequence (P30968 whole entry): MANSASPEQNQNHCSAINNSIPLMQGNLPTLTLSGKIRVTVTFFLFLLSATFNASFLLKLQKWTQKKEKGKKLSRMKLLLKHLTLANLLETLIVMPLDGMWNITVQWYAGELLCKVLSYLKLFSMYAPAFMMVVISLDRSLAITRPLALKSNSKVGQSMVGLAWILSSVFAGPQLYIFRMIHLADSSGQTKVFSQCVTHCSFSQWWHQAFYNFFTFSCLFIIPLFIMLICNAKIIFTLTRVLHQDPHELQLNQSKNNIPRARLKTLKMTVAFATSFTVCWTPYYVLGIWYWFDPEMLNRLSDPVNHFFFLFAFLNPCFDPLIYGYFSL
REPORTED_METRIC: inhibition at 1 µM (%)
Provide only the numeric value, understood in %.

Use the examples below as a reference point.
{"COMPOUND": "Cc1cc2c(cc1Cc1ccc(C(=O)NCCN3CCCCC3)o1)C(C)(C)CCC2(C)C [drawing 982]", "inhibition at 1 µM, %": 15}
{"COMPOUND": "Cc1cc2c(cc1Cc1ccc(C(=O)NCCc3ccc(Cl)c(Cl)c3)o1)C(C)(C)CCC2(C)C", "inhibition at 1 µM, %": 8}
{"COMPOUND": "Cc1cc2c(cc1Cc1ccc(C(=O)NCC3CN(Cc4ccccc4)CCO3)o1)C(C)(C)CCC2(C)C (stereo not shown) [drawing 1049]", "inhibition at 1 µM, %": 42}

### Prompt Identify the reported inhibition at 1 µM for the following entry. Cc1cc2c(cc1Cc1ccc(C(=O)NCC(C)(c3ccccc3)c3ccccc3)o1)C(C)(C)CCC2(C)C
### Response 22

----------
Target: LTD4 (Homo sapiens, UniProt Q9Y271)
Sequence (Q9Y271 1-337): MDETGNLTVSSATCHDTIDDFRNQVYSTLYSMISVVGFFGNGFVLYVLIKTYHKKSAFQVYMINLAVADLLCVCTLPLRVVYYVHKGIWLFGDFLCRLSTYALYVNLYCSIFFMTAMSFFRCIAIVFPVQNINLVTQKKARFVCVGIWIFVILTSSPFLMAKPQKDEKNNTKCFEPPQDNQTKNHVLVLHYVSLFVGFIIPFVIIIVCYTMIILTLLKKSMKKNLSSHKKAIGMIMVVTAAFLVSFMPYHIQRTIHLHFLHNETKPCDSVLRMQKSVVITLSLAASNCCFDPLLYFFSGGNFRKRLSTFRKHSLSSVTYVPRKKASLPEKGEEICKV
pKi: −log10 of the molar value.
REPORTED_METRIC: pKi

### Prompt Identify the reported pKi for the following entry. COc1cccc(OC)c1NC(=O)c1ccc(Cc2cc3c(cc2C)C(C)(C)CCC3(C)C)o1
### Response < 6.00

----------
assay: Pharmacokinetic studies / bioavailability in rats; type: in vivo, rat; details: female, rat, plasma, po, 10 mg/kg, rat female; p.o. 10 mg/kg; 5 mg/ml solution in 10% DMSO 10% cremophor 80% saline
REPORTED_METRIC: Tmax

Use the examples below as a reference point.
{"CPD_SMILES": "COc1cc(OC)c(NC(=O)c2ccc(Cc3c(C)ccc4c3OCCC4(C)C)o2)c(OC)c1", "Tmax": "1.5 h"}
{"CPD_SMILES": "COc1cc(OC)c(NC(=O)c2ccc(Cc3cc(C(C)(C)C)ccc3C)o2)c(OC)c1", "Tmax": "1.5 h"}

### Prompt Identify the reported Tmax for the following entry. COc1cccc(OC)c1NC(=O)c1ccc(Cc2c(C)c(C)cc(C)c2C)o1
### Response 1 h

### Prompt Identify the reported Tmax for the following entry. COc1cc(NS(C)(=O)=O)c(NC(=O)c2ccc(Cc3cc4c(cc3C)C(C)(C)CCC4(C)C)o2)c(OC)c1
### Response 0.5 h

### Prompt Identify the reported Tmax for the following entry. Cc1ccc(C(C)(C)C)cc1Cc1ccc(C(=O)Nc2ccc3[nH]ccc3c2)o1
### Response 1 h

### Prompt Identify the reported Tmax for the following entry. COc1cc(OC)c(NC(=O)c2ccc(Cc3c(OC)cc(C)c(Cl)c3C)o2)c(OC)c1
### Response 1 h

### Prompt Identify the reported Tmax for the following entry. COc1cc2c(cc1Cc1ccc(C(=O)Nc3c(OC)cc(OC)c(C#N)c3OC)o1)C(C)(C)CCC2(C)C
### Response 1 h

### Prompt Identify the reported Tmax for the following entry. COc1cccc(OC)c1NC(=O)c1ccc(Cc2c(C)cc(C)cc2C)o1
### Response 0.5 h

### Prompt Identify the reported Tmax for the following entry. COc1cc(C)c(Cl)c(C)c1Cc1ccc(C(=O)Nc2c(OC)cccc2OC)o1
### Response 1 h

### Prompt Identify the reported Tmax for the following entry. Cc1cc2c(cc1Cc1ccc(C(=O)NCc3ccc(CNc4ncccn4)cc3)o1)C(C)(C)CCC2(C)C
### Response 1 h

### Prompt Identify the reported Tmax for the following entry. COc1cc(OC)c(NC(=O)c2ccc(Cc3cc4c(cc3C)CCCC4(C)C)o2)c(OC)c1
### Response 1 h

### Prompt Identify the reported Tmax for the following entry. COc1cc(OC)c(NC(=O)c2ccc(Cc3cc4c(cc3C)OCCC4(C)C)o2)c(OC)c1
### Response 1 h

### Prompt Identify the reported Tmax for the following entry. COc1cc(OC)c(NC(=O)c2ccc(Cc3cc4c(cc3C)C(C)(C)CC4(C)C)o2)c(OC)c1
### Response 1 h

----------
Measured inhibition at 10 µM of individual entries
molecular target: mouse GnRH receptor (Mus musculus, UniProt Q01776); construct: expressed in transfected cells; host or cells: 293 cells; assay: Radioligand binding, 125I-GnRH-A, 293 cells expressing mouse GnRH receptors; conditions: 10 uM; read-out: % Inhib. @ 10 uM mGnRH
Provide only the numeric value, understood in %.

{"MOLECULE": "CCN(CC)CCN(C)C(=O)c1ccc(Cc2cc3c(cc2C)C(C)(C)CCC3(C)C)o1 [drawing 1428]", "MEASUREMENT_UNITS": "%", "NUMERIC_VALUE": 68}
{"MOLECULE": "CCCCNC(=O)c1ccc(Cc2cc3c(cc2C)C(C)(C)CCC3(C)C)o1", "MEASUREMENT_UNITS": "%", "NUMERIC_VALUE": 90}
{"MOLECULE": "Cc1cc2c(cc1Cc1ccc(C(=O)NC3CCCCC3O)o1)C(C)(C)CCC2(C)C (stereo not shown) [drawing 1522]", "MEASUREMENT_UNITS": "%", "NUMERIC_VALUE": 97}
{"MOLECULE": "CSCCCNC(=O)c1ccc(Cc2cc3c(cc2C)C(C)(C)CCC3(C)C)o1 [drawing 1586]", "MEASUREMENT_UNITS": "%", "NUMERIC_VALUE": 99}
{"MOLECULE": "Cc1ccc(CN(CCCN2CCOCC2)C(=O)c2ccc(Cc3cc4c(cc3C)C(C)(C)CCC4(C)C)o2)cc1", "MEASUREMENT_UNITS": "%", "NUMERIC_VALUE": 103}
{"MOLECULE": "CCC(O)CNC(=O)c1ccc(Cc2cc3c(cc2C)C(C)(C)CCC3(C)C)o1 (stereo not shown) [drawing 1537]", "MEASUREMENT_UNITS": "%", "NUMERIC_VALUE": 99}
{"MOLECULE": "Cc1cc2c(cc1Cc1ccc(C(=O)N3CC=C(n4c(=O)[nH]c5ccccc54)CC3)o1)C(C)(C)CCC2(C)C", "MEASUREMENT_UNITS": "%", "NUMERIC_VALUE": 85}
{"MOLECULE": "Cc1cc2c(cc1Cc1ccc(C(=O)N3CCCCC3C)o1)C(C)(C)CCC2(C)C (stereo not shown)", "MEASUREMENT_UNITS": "%", "NUMERIC_VALUE": 100}
{"MOLECULE": "Cc1cc2c(cc1Cc1ccc(C(=O)N3CCN(CCO)CC3)o1)C(C)(C)CCC2(C)C [drawing 1429]", "MEASUREMENT_UNITS": "%", "NUMERIC_VALUE": 69}
{"MOLECULE": "Cc1cc2c(cc1Cc1ccc(C(=O)N(Cc3ccc(O)cc3)C3CCN(Cc4ccccc4)CC3)o1)C(C)(C)CCC2(C)C", "MEASUREMENT_UNITS": "%", "NUMERIC_VALUE": 28}

### Prompt Identify the reported inhibition at 10 µM for the following entry. CCN(CC)CCCCNC(=O)c1ccc(Cc2cc3c(cc2C)C(C)(C)CCC3(C)C)o1
### Response 101

### Prompt Identify the reported inhibition at 10 µM for the following entry. Cc1cc2c(cc1Cc1ccc(C(=O)N3CCCCC3CCO)o1)C(C)(C)CCC2(C)C (stereo not shown)
### Response 100

### Prompt Identify the reported inhibition at 10 µM for the following entry. Cc1cc2c(cc1Cc1ccc(C(=O)N(C)CC(O)c3ccc(O)cc3)o1)C(C)(C)CCC2(C)C (stereo not shown)
### Response 34

----------
Biological target: mouse GnRH receptor (Mus musculus, UniProt Q01776)
Construct: expressed in transfected cells; host or cells: 293 cells
Sequence (Q01776 1-327): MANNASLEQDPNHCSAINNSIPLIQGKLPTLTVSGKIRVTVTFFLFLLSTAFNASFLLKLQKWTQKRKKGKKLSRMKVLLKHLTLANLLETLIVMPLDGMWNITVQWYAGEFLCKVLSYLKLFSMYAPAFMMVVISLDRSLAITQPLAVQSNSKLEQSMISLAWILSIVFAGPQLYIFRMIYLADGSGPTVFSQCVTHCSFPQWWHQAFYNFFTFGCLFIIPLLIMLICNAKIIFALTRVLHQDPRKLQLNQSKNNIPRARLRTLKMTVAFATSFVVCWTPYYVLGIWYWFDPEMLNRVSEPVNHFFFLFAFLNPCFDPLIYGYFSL
Assay: Radioligand binding, 125I-GnRH-A, 293 cells expressing mouse GnRH receptors
Details: 10 uM; read-out: % Inhib. @ 10 uM mGnRH
REPORTED_METRIC: inhibition at 10 µM (%)
Provide only the numeric value, understood in %.

Use the examples below as a reference point.
{"MOLECULE": "COC(CCCNC(=O)c1ccc(Cc2cc3c(cc2C)C(C)(C)CCC3(C)C)o1)OC [drawing 1383]", "EXPERIMENTAL_TARGET": "mouse GnRH receptor (Mus musculus, UniProt Q01776)", "MEASUREMENT_UNITS": "%", "NUMERIC_VALUE": 101}
{"MOLECULE": "CCCN(Cc1ccc([N+](=O)[O-])cc1)C(=O)c1ccc(Cc2cc3c(cc2C)C(C)(C)CCC3(C)C)o1 [drawing 1480]", "EXPERIMENTAL_TARGET": "mouse GnRH receptor (Mus musculus, UniProt Q01776)", "MEASUREMENT_UNITS": "%", "NUMERIC_VALUE": 66}
{"MOLECULE": "CCC1CCCCN1C(=O)c1ccc(Cc2cc3c(cc2C)C(C)(C)CCC3(C)C)o1 (stereo not shown)", "EXPERIMENTAL_TARGET": "mouse GnRH receptor (Mus musculus, UniProt Q01776)", "MEASUREMENT_UNITS": "%", "NUMERIC_VALUE": 100}

Now look at this one.
### Prompt Provide inhibition at 10 µM, tested on mouse GnRH receptor (Mus musculus, UniProt Q01776), for C=CCN(CC=C)C(=O)c1ccc(Cc2cc3c(cc2C)C(C)(C)CCC3(C)C)o1 [drawing 1440] .
### Response 83
